Sourced from patent US20090317326A1

- ASSAY EXPLANATION: Biodistribution of F-18 bombesin analogs in nude mice bearing human prostate cancer PC-3
- STUDY CONDITIONS: nude, mouse, tumor/blood, 135 kBq per animal, total radioactivity
Starred links: 1 amine or outer side, 2 acyl side, 3 side chain; linkers in the order of their positions; H or OH if unused. Non-standard residues stand in square brackets, D forms with d. Residues, ends and D or L forms follow the SMILES beside them. *: point of attachment. γ4hIle = CC[C@H](C)[C@@H](CCC(=O)[*:2])N[*:1]; Benzoyl(3-CN,4-F) = N#Cc1cc(C(=O)*)ccc1F; Ava = NCCCCC(=O)O
ASSAY ENDPOINT: tissue to tissue ratio at 1 h
Numbers only.

The measured tissue to tissue ratio at 1 h associated with CC[C@H](C)[C@@H](CCC(=O)N[C@@H](CC(C)C)C(N)=O)NC(=O)[C@H](Cc1c[nH]cn1)NC(=O)CNC(=O)[C@@H](NC(=O)[C@H](C)NC(=O)[C@H](Cc1c[nH]c2ccccc12)NC(=O)[C@H](CCC(N)=O)NC(=O)CCCCNC(=O)c1ccc(F)c(C#N)c1)C(C)C ({Benzoyl(3-CN,4-F)-Ava}-QWAVGH[γ4hIle]L-NH2) reads 21

====

- ASSAY EXPLANATION: Biodistribution of F-18 bombesin analogs in nude mice bearing human prostate cancer PC-3
- STUDY CONDITIONS: nude, mouse, pancreas, 135 kBq per animal, total radioactivity
Starred links: 1 amine or outer side, 2 acyl side, 3 side chain; linkers in the order of their positions; H or OH if unused. Non-standard residues stand in square brackets, D forms with d. Residues, ends and D or L forms follow the SMILES beside them. *: point of attachment. γ4hIle = CC[C@H](C)[C@@H](CCC(=O)[*:2])N[*:1]; Benzoyl(3-CN,4-F) = N#Cc1cc(C(=O)*)ccc1F; Ava = NCCCCC(=O)O
ASSAY ENDPOINT: tissue uptake at 1 h (%ID/g)
Numbers only, in %ID/g.

Value of measured tissue uptake at 1 h for the entry CC[C@H](C)[C@@H](CCC(=O)N[C@@H](CC(C)C)C(N)=O)NC(=O)[C@H](Cc1c[nH]cn1)NC(=O)CNC(=O)[C@@H](NC(=O)[C@H](C)NC(=O)[C@H](Cc1c[nH]c2ccccc12)NC(=O)[C@H](CCC(N)=O)NC(=O)CCCCNC(=O)c1ccc(F)c(C#N)c1)C(C)C ({Benzoyl(3-CN,4-F)-Ava}-QWAVGH[γ4hIle]L-NH2) : 0.34

====

- System: human prostate cancer PC-3
- STUDY CONDITIONS: mouse, in vivo
ASSAY ENDPOINT: Panc. % ID/g (% ID/g)
Numbers only, in % ID/g.

                                  substance  assay_endpoint  quantitative_readout
0  3-CF3,4-F-Benzoyl-Arg-Ava-Gln-Trp-Ala-Val-NMeGly-His-Sta-Leu-NH2 (RXQWAVGHXL; N-methyl; non-natural residues)    Panc. % ID/g                  1.42
1  3-CN,4-F-Benzoyl-Arg-Ava-Gln-Trp-Ala-Val-NMeGly-His-Sta-Leu-NH2 (RXQWAVGHXL; N-methyl; non-natural residues)    Panc. % ID/g                   1.3
2  3-CN,4-F-Benzoyl-Arg-Ava-Gln-Trp-Ala-Val-Gly-His(3Me)-Sta-Leu-NH2 (RXQWAVGHXL; non-natural residues)    Panc. % ID/g                  4.16

Turning now to a further record.
Reported Panc. % ID/g of 4F,3CN-Bnz-Arg-Ava-Gln-Trp-Ala-Val-NMeGly-His(3Me)-Sta-Leu-NH2 (RXQWAVGHXL; N-methyl; non-natural residues) : 3.51

====

- ASSAY EXPLANATION: Biodistribution of F-18 bombesin analogs in nude mice bearing human prostate cancer PC-3
- STUDY CONDITIONS: nude, mouse, muscle, 135 kBq per animal, total radioactivity
Starred links: 1 amine or outer side, 2 acyl side, 3 side chain; linkers in the order of their positions; H or OH if unused. Non-standard residues stand in square brackets, D forms with d. Residues, ends and D or L forms follow the SMILES beside them. *: point of attachment. γ4hIle = CC[C@H](C)[C@@H](CCC(=O)[*:2])N[*:1]; Benzoyl(3-CN,4-F) = N#Cc1cc(C(=O)*)ccc1F; Ava = NCCCCC(=O)O
ASSAY ENDPOINT: tissue uptake at 1 h (%ID/g)
Give bare numbers, in %ID/g.

Measured tissue uptake at 1 h of CC[C@H](C)[C@@H](CCC(=O)N[C@@H](CC(C)C)C(N)=O)NC(=O)[C@H](Cc1c[nH]cn1)NC(=O)CNC(=O)[C@@H](NC(=O)[C@H](C)NC(=O)[C@H](Cc1c[nH]c2ccccc12)NC(=O)[C@H](CCC(N)=O)NC(=O)CCCCNC(=O)c1ccc(F)c(C#N)c1)C(C)C ({Benzoyl(3-CN,4-F)-Ava}-QWAVGH[γ4hIle]L-NH2) : 0.02

====

- Tested on: human prostate cancer PC-3
- ASSAY EXPLANATION: Biodistribution of F-18 bombesin analogs in nude mice bearing human prostate cancer PC-3
- STUDY CONDITIONS: Table 1; blocking, protocol as above (100 μg unlabeled gastrin-releasing peptide co-injected)
For each record, write down the corresponding Blocking.

>>> print(df.to_string())
                                  substance  assay_endpoint  result
0  3-CF3,4-F-Benzoyl-Arg-Ava-Gln-Trp-Ala-Val-NMeGly-His-Sta-Leu-NH2 (RXQWAVGHXL; N-methyl; non-natural residues)        Blocking    >70%
1  4F,3CN-Bnz-Arg-Ava-Gln-Trp-Ala-Val-NMeGly-His(3Me)-Sta-Leu-NH2 (RXQWAVGHXL; N-methyl; non-natural residues)        Blocking  50-80%

Give Blocking for each of the items listed below.
1. 3-CN,4-F-Benzoyl-Arg-Ava-Gln-Trp-Ala-Val-NMeGly-His-Sta-Leu-NH2 (RXQWAVGHXL; N-methyl; non-natural residues)
2. 3-CN,4-F-Benzoyl-Arg-Ava-Gln-Trp-Ala-Val-Gly-His(3Me)-Sta-Leu-NH2 (RXQWAVGHXL; non-natural residues)

A)
1. 40-70%
2. 30-90%

====

- System: human prostate cancer PC-3
- STUDY CONDITIONS: mouse, in vivo
Exercise: for every item that follows, state its recorded T/M.
One number for each entry.

Some entries whose results are on file:
>>> print(df.to_string())
                                  substance  quantitative_readout
0  3-CF3,4-F-Benzoyl-Arg-Ava-Gln-Trp-Ala-Val-NMeGly-His-Sta-Leu-NH2 (RXQWAVGHXL; N-methyl; non-natural residues)                  25.3
1  4F,3CN-Bnz-Arg-Ava-Gln-Trp-Ala-Val-NMeGly-His(3Me)-Sta-Leu-NH2 (RXQWAVGHXL; N-methyl; non-natural residues)                 16.77
2  3-CN,4-F-Benzoyl-Arg-Ava-Gln-Trp-Ala-Val-NMeGly-His-Sta-Leu-NH2 (RXQWAVGHXL; N-methyl; non-natural residues)                 12.75

# evaluate next
Entry 3-CN,4-F-Benzoyl-Arg-Ava-Gln-Trp-Ala-Val-Gly-His(3Me)-Sta-Leu-NH2 (RXQWAVGHXL; non-natural residues) , T/M reported as 13.84
